The measurements presented in this section are drawn from ChEMBL document CHEMBL2016576.

Molecular target: Cholesteryl ester transfer protein (Homo sapiens)
Assay: Inhibition of CETP in human plasma assessed as reduction in fluorescent intensity by fluorescence analysis
parameter: pIC50
// pIC50: -log10(molar conc.)

Solved entries (count: 2):
CC[C@@H]1C[C@H](N(Cc2cc(C(F)(F)F)cc(C(F)(F)F)c2)c2nnn(C)n2)c2nc(C(F)(F)F)ccc2N1CCC(C)C | 6.08
CC[C@@H]1C[C@H](N(Cc2cc(C(F)(F)F)cc(C(F)(F)F)c2)c2nnn(C)n2)c2nc(C(F)(F)F)ccc2N1C(=O)OC1CCN(C)CC1 | 7.14

// next item, pIC50 requested
Q: pIC50 lookup needed for CC[C@@H]1C[C@H](N(Cc2cc(C(F)(F)F)cc(C(F)(F)F)c2)c2nnn(C)n2)c2nc(C(F)(F)F)ccc2N1C(=O)OC1CCOCC1 , thanks.
Result: 7.18

----------
// reported clearance per item
Assay: Clearance in cynomolgus monkey at 1 mg/kg, iv and 3 mg/kg, po after 72 hrs
Format: ADME, organism-based, Macaca fascicularis
Settings: in vivo
Use mL/min/kg as the unit, but write only the number.

CC[C@@H]1C[C@H](N(Cc2cc(C(F)(F)F)cc(C(F)(F)F)c2)c2nnn(C)n2)c2nc(C)ccc2N1C(=O)OC(C)C | 2.2

Q: clearance for CC[C@@H]1C[C@H](N(Cc2cc(C(F)(F)F)cc(C(F)(F)F)c2)c2nnn(C)n2)c2nc(C(F)(F)F)ccc2N1C(=O)OC(C)C ?
Result: 0.7

----------
Assay: Oral bioavailability in beagle dog at 3 mg/kg after 72 hrs
Assay type: ADME, organism-based, Canis lupus familiaris
Settings: in vivo
parameter: bioavailability (%)
Number only, in %; omit the unit.

Q: // bioavailability lookup, key: CC[C@@H]1C[C@H](N(Cc2cc(C(F)(F)F)cc(C(F)(F)F)c2)c2nnn(C)n2)c2nc(C(F)(F)F)ccc2N1C(=O)OC(C)C
Result: 49

----------
System: cortisol synthase mRNA
Assay: Induction of cortisol synthase mRNA level in human NCI-H295 cells by in vitro branched DNA method relative to control
Type: cell-based
Settings: read-out: FC
parameter: fold induction
// return a plain number; no unit text

Q: Report fold induction for CC[C@@H]1C[C@H](N(Cc2cc(C(F)(F)F)cc(C(F)(F)F)c2)c2nnn(C)n2)c2nc(C(F)(F)F)ccc2N1C(=O)OC(C)C please.
Result: 10

----------
Assay: Oral bioavailability in cynomolgus monkey at 3 mg/kg after 72 hrs
Type: ADME, organism-based, Macaca fascicularis
Conditions: in vivo
bioavailability listing for selected molecules.
Report the value in % with no unit label.

Q: # bioavailability lookup, item CC[C@@H]1C[C@H](N(Cc2cc(C(F)(F)F)cc(C(F)(F)F)c2)c2nnn(C)n2)c2nc(C(F)(F)F)ccc2N1C(=O)OC(C)C
Result: 18

Q: Field entry: CC[C@@H]1C[C@H](N(Cc2cc(C(F)(F)F)cc(C(F)(F)F)c2)c2nnn(C)n2)c2nc(C)ccc2N1C(=O)OC(C)C
Result: 32

----------
Molecular target: Cholesteryl ester transfer protein (Homo sapiens, UniProt P11597)
Sequence (P11597 whole entry): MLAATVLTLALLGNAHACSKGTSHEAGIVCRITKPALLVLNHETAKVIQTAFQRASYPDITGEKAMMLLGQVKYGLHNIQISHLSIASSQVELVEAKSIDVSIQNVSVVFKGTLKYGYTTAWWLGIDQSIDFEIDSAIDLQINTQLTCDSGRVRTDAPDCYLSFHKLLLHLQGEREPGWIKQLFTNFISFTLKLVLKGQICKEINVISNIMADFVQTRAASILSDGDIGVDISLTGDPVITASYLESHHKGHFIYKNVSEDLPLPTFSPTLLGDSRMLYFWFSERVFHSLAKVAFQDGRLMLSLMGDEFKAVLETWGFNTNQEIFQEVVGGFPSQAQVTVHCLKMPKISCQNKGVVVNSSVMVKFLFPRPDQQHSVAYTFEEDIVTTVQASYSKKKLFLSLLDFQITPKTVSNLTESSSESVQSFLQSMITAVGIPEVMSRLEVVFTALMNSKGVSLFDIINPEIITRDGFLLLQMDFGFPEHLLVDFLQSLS
Assay: Inhibition of CETP in human plasma assessed as reduction in fluorescent intensity by fluorescence analysis
Friendly reminder: IC50 below 40 nM is 1, at or above is 0.

// known answers, use as guide
CC[C@@H]1C[C@H](N(Cc2cc(C(F)(F)F)cc(C(F)(F)F)c2)c2nnn(C)n2)c2nc(OC)c(C)cc2N1C(=O)OC(C)C (racemic) | 1
CC[C@@H]1C[C@H](N(Cc2cc(C(F)(F)F)cc(C(F)(F)F)c2)c2nnn(CCO)n2)c2nc(C(F)(F)F)ccc2N1C(=O)OC(C)C (racemic) | 0
CC[C@@H]1C[C@H](N(Cc2cc(C(F)(F)F)cc(C(F)(F)F)c2)c2nnn(C)n2)c2nc(C(F)(F)F)ccc2N1C(=O)OC | 0
CC[C@@H]1C[C@H](N(Cc2cc(Cl)cc(C(F)(F)F)c2)c2nnn(C)n2)c2nc(C)ccc2N1C(=O)OC(C)C | 1
CC[C@@H]1C[C@H](N(Cc2cc(C(F)(F)F)cc(C(F)(F)F)c2)c2nnn(C)n2)c2nc(N3CCNCC3)ccc2N1C(=O)OC(C)C | 0
CC[C@@H]1C[C@H](N(Cc2cc(C(F)(F)F)cc(C(F)(F)F)c2)C(C)=O)c2nc(Br)ccc2N1C(=O)OC(C)C (racemic) | 0

Q: Lab note: IC50 threshold 40 nM. Does this compound come in strictly under it? CC[C@@H]1C[C@H](N(C#N)Cc2cc(C(F)(F)F)cc(C(F)(F)F)c2)c2nc(C(F)(F)F)ccc2N1C(=O)OC(C)C (racemic)
Result: 0

----------
# maps each entry to its pIC50
Molecular target: UniProt:P11597
Experiment: Inhibition of CETP in human plasma assessed as reduction in fluorescent intensity by fluorescence analysis
// scale note: pIC50 = -log10(conc_M); give the bare number

CC[C@@H]1C[C@H](N(Cc2cc(C(F)(F)F)cc(C(F)(F)F)c2)c2nnn(C)n2)c2nc(N3CCCC3)ccc2N1C(=O)OC(C)C | 6.33
CC[C@@H]1C[C@H](N(Cc2cc(C(F)(F)F)cc(C(F)(F)F)c2)c2noc(C)n2)c2nc(C(F)(F)F)ccc2N1C(=O)OC(C)C (racemic) | 7.13
CC[C@H]1C[C@@H](N(Cc2cc(C(F)(F)F)cc(C(F)(F)F)c2)c2nnn(C)n2)c2nc(C)ccc2N1C(=O)OC(C)C | 4.30
CCOC(=O)N1c2c(C)cc(C(F)(F)F)nc2[C@@H](N(Cc2cc(C(F)(F)F)cc(C(F)(F)F)c2)c2nnn(C)n2)C[C@H]1CC (racemic) | 7.62

Q: Entry CC[C@@H]1C[C@H](N(Cc2cc(C(F)(F)F)cc(C(F)(F)F)c2)C(C)=O)c2nc(OC)ccc2N1C(=O)OC(C)C (racemic) : reported pIC50 = ?
Result: 6.31

Q: How about CC[C@@H]1C[C@H](N(Cc2cc(C(F)(F)F)cc(C(F)(F)F)c2)c2nnn(C)n2)c2nc(NC)ccc2N1C(=O)OC(C)C ?
Result: 6.85

----------
Assay: Oral bioavailability in Sprague-Dawley rat at 3 mg/kg after 72 hrs
Type: ADME, organism-based
Conditions: in vivo
parameter: bioavailability (%)
# value in %; strip the unit string

CC[C@@H]1C[C@H](N(Cc2cc(C(F)(F)F)cc(C(F)(F)F)c2)c2nnn(C)n2)c2nc(C(F)(F)F)ccc2N1C(=O)OC(C)C | 31

Consider the record given below.
Q: What does the data say about its bioavailability? Entry: CC[C@@H]1C[C@H](N(Cc2cc(C(F)(F)F)cc(C(F)(F)F)c2)c2nnn(C)n2)c2nc(C)ccc2N1C(=O)OC(C)C
Result: 18

----------
Target: UniProt:P11597
Experiment: Inhibition of CETP in human plasma assessed as reduction in fluorescent intensity by fluorescence analysis
parameter: IC50 (nM)
// units = nM; emit number, no label

Completed entries (count: 4):
Cc1cc(C)c2c(c1)[C@@H](N(Cc1cc(C(F)(F)F)cc(C(F)(F)F)c1)c1nnn(C)n1)CCCN2C[C@H]1CC[C@H](C(=O)O)CC1 | 26
CCC1CC(N(Cc2cc(C(F)(F)F)cc(C(F)(F)F)c2)C(C)=O)c2sccc2N1C(=O)OC(C)C (configuration not stated) | 46000
CC[C@@H]1C[C@H](N(Cc2cc(C(F)(F)F)cc(C(F)(F)F)c2)c2nnn(C)n2)c2nc(C(F)(F)F)ccc2N1C(=O)C(C)C | 55
CC[C@@H]1C[C@H](N(Cc2cc(Cl)cc(Cc3cncc(C(F)(F)F)c3)c2)c2nnn(C)n2)c2nc(C(F)(F)F)ccc2N1C(=O)OC(C)C | 207

Q: Reported IC50 for CC[C@@H]1C[C@H](N(Cc2cc(C(F)(F)F)cc(C(F)(F)F)c2)c2nnn(C)n2)c2nc(N3CCOCC3)ccc2N1C(=O)OC(C)C : what is it?
Result: 25000

Q: Would you kindly repeat that for CC[C@@H]1C[C@H](N(Cc2cc(C(F)(F)F)cc(C(F)(F)F)c2)c2nnn(C)n2)c2nc(C(F)(F)F)ccc2N1C(=O)OC(C)C (racemic) ?
Result: 49

Q: Next compound up: CC[C@@H]1C[C@H](N(Cc2cc(C(F)(F)F)cc(C(F)(F)F)c2)c2nnn(C)n2)c2nc(N(C)C)ccc2N1C(=O)OC(C)C
Result: 31

----------
pIC50 for assorted molecules
Molecular target: Cholesteryl ester transfer protein (Homo sapiens, UniProt P11597)
Test: Inhibition of CETP in human plasma assessed as reduction in fluorescent intensity by fluorescence analysis
// pIC50 is dimensionless: -log10 of concentration (M)

Please review the following examples before continuing.
CCC1CC(N(Cc2cc(C(F)(F)F)cc(C(F)(F)F)c2)C(C)=O)c2ccc(C)nc2N1C(=O)OC(C)C (centres undefined) | 4.36
CC[C@@H]1C[C@H](N(Cc2cc(C(F)(F)F)cc(C(F)(F)F)c2)c2nnn(C)n2)c2nc(N)ccc2N1C(=O)OC(C)C | 7.01
CC[C@@H]1C[C@H](N(Cc2cc(C(F)(F)F)cc(C(F)(F)F)c2)c2nnn(C)n2)c2nc(C(F)(F)F)ccc2N1C(=O)OCCN1CCN(C)CC1 | 5.24

Now examine the next entry.
Q: Can you look up the measured pIC50 of CC[C@@H]1C[C@H](N(Cc2cc(C(F)(F)F)cc(C(F)(F)F)c2)c2nnn(C)n2)c2nc(C(F)(F)F)ccc2N1C(=O)OCCc1nn[nH]n1 for me?
Result: 6.31
